System: BT-549 breast
Your reply should match one of these outcome classes. active, inactive

Past entries and their recorded results:
compound: N#Cc1cnc2cc(OC[C@@H](O)CO)c(NC(=O)CC3CSSC3)cc2c1Nc1ccc(OCc2cccc(F)c2)c(Cl)c1
category: active

compound: CC1=C[C@H]2c3c(c(O)c(O)c4oc5ccccc5c(=O)c34)[C@H](c3cc(O)c(O)c4oc5ccccc5c(=O)c34)[C@H]2C(C)(C)C1
category: inactive

compound: COc1cc(/C=C\[N+](=O)[O-])ccc1OCc1ccccc1
category: inactive

compound: Cn1c(=O)c(Oc2ccccc2F)cc2cnc(NC3CCOCC3)nc21
category: inactive

compound: COc1ccccc1NC(=O)n1nc(N)c2ccccc21
category: inactive

Status in this test for `CC(C)c1ccc(C(=O)Nc2sc3c(c2C#N)CCC(=O)C3)cc1` ?
active

Status in this test for `CCCCCCCCCCN(CCCCCCCCCC)CC(=O)c1ccc2cc(Br)c3ccccc3c2c1` ?
inactive

====

Test system: TK-10 renal
experimental.details: NCI tumour cell line growth inhibition, 48 h
# TGI values compiled below
Supply the numeric figure in µM, leaving out any unit text.

Reference set, count: 2
compound: CCOC(=O)c1cc(C(=O)c2ccccc2)n2nc(-c3ccc(Cl)cc3)ccc12
assayed.target: TK-10 renal
TGI [µM]: 47.8
//
compound: O=C1C=C(Br)C(=O)C12CCc1ccccc12 (stereo not given)
assayed.target: TK-10 renal
TGI [µM]: 32.3

Identify measured TGI corresponding to COc1cc(/C=C2\CC3C4CC=C5C[C@@H](OC(C)=O)CC[C@]5(C)C4CC[C@]3(C)C2=O)ccc1OCCCn1ccnc1 (stereo not given in full)
17.3

Identify measured TGI corresponding to C=C1C(=O)OC2CC1C(O)C/C(C)=C/CC/C(C)=C/C(O)CC2C (stereo not given)
6.91

Identify measured TGI corresponding to `O=C1Sc2ccc(Br)cc2C(=O)Sc2ccccc21`
38.3

====

# TGI values compiled below
Tested on: K-562 leukemia
experimental.details: NCI tumour cell line growth inhibition, 48 h

compound: COc1cc(C2SCC(=O)N2c2ccc(-n3c(-c4ccccc4)nc4ccccc4c3=O)cc2)ccc1O (stereo not given)
assayed.target: K-562 leukemia
TGI: > 100 µM
//
compound: CC1(C)N=C(C(N)=O)c2ncn(CCO)c2N1
assayed.target: K-562 leukemia
TGI: > 100 µM
//
compound: Clc1ccc(Cc2nc3ccc(CCN4CCN(c5ccccc5)CC4)cc3[nH]2)cc1
assayed.target: K-562 leukemia
TGI: 30.6 µM

Identify measured TGI corresponding to `COc1cc2cc(C(=O)N3C[C@@H](CCl)c4c3cc(N)c3ccccc43)[nH]c2c(OC)c1OC`
> 100 µM

Identify measured TGI corresponding to `NC(=O)c1nnc2cc(F)ccc2c1N`
> 100 µM

====

System: HCT-15 colon
experimental.details: NCI tumour cell line growth inhibition, 48 h
# TGI values compiled below

Identify measured TGI corresponding to `CCOc1ccc(/C=C(\Cl)c2ccc(OC)c(OC)c2)cc1`
> 100 µM

Identify measured TGI corresponding to C=C1C(=O)OC2(C)C3CCC(C3)C12 (stereo unspecified)
> 100 µM

Identify measured TGI corresponding to `ClC(Cl)c1nc(-c2cccnc2)n2nc(-c3ccccc3)cc2n1`
3.44 µM

====

Tested on: KM12 colon
experimental.details: NCI tumour cell line growth inhibition, 48 h
Rule: TGI of 20 µM or more gives 1; anything lower gives -1.

Past entries and their recorded results:
compound: FC(F)(F)c1ccccc1N1CCN(c2nc(-c3cccs3)nc3ccc(Br)cc23)CC1
category: 1
//
compound: Cc1c2c(cc3c1[nH]c1ccccc13)C=NCC2
category: 1
//
compound: COc1cc(/C=C\[N+](=O)[O-])ccc1OCc1ccccc1
category: -1

# check: TGI of C=C=C(CC)C(C(=O)OC)N(CC)CC (centres undefined) is greater than or equal to 20 µM
1

# check: TGI of `COc1cc2c3c(n(CCCNCCN)c(=O)c2cc1OC)-c1cc2c(cc1C3=O)OCO2` is greater than or equal to 20 µM
-1

====

The following molecules each carry a recorded GI50 for SF-539 CNS.

Reference set, count: 2
smiles.entry: Cn1c(=O)c(Oc2ccccc2F)cc2cnc(NC3CCOCC3)nc21
GI50: > 25 µM
//
smiles.entry: CC/C=C\C[C@H](O)C/C=C1/C(=O)C=C[C@@H]1C/C=C\CCCC(=O)N(C)C
GI50: 2.18 µM

The record that follows has no GI50 shown yet.
State measured GI50 of the molecule `NC1CCN(c2nc(Nc3cccc(C(F)(F)F)c3)c3c(=O)[nH]ccc3n2)CC1` with SF-539 CNS.
1.77 µM

====

# TGI values compiled below
Test system: 786-0 renal
experimental.details: NCI tumour cell line growth inhibition, 48 h
Supply the numeric figure in µM, leaving out any unit text.

Reference set, count: 4
compound: O=C1CSC(/C(=C\c2ccc(Cl)cc2)c2nc3ccccc3[nH]2)=N1
assayed.target: 786-0 renal
TGI / µM: 26.4
//
compound: NCCCn1c2ccccc2c2c3c(c4c(c21)CCC(O)CC4)C(=O)NC3=O (centres undefined)
assayed.target: 786-0 renal
TGI / µM: 16.8
//
compound: C=C1C(=O)OC2CC1C(O)C/C(C)=C/CC/C(C)=C/C(O)CC2C (centres undefined)
assayed.target: 786-0 renal
TGI / µM: 3.99
//
compound: O=c1c(SSc2coc3cc(F)ccc3c2=O)coc2cc(F)ccc12
assayed.target: 786-0 renal
TGI / µM: 21.6

Identify measured TGI corresponding to `COc1cccc(-c2ccc3c4c2O[C@H]2c5[nH]c6ccccc6c5C[C@@]5(O)[C@@H](C3)N(CC3CC3)CC[C@]425)c1`
3.09

Identify measured TGI corresponding to `O=C1C(NCCc2ccc(O)c(O)c2)=CC(=O)c2ncccc21`
43.2

Identify measured TGI corresponding to `Cn1c(=O)c2c(nc3n(Cc4ccccc4)c(=O)c(NCCBr)cn23)n(C)c1=O`
37

Identify measured TGI corresponding to `O=C(Nc1nc2ccccc2n1Cc1ccccc1)NC12CC3CC(CC(C3)C1)C2`
92.9

====

Tested on: UO-31 renal
Your reply should match one of these outcome classes. t (active), f (inactive)

Past entries and their recorded results:
molecule: CCOC(=O)C(=Cc1ccccc1[N+](=O)[O-])C(=O)OCC
category: f

molecule: C=C1C(=O)O[C@H]2[C@H]1CC/C(COC(=O)NCc1ccc(Cn3c(=O)sn(CCCCl)c3=O)cc1)=C\CC[C@@]1(C)O[C@@H]21
category: f

molecule: COC(=O)c1c2c(c(C)[n+]([O-])c1C)C(=O)C=C(NCc1ccc(F)c(F)c1)C2=O
category: f

molecule: CC(=O)O[C@H]1CC[C@@]2(C)C(=CC[C@H]3[C@@H]4C/C(=C\c5cccc(OCCN6CCOCC6)c5)[C@H](OC(C)=O)[C@@]4(C)CC[C@@H]32)C1
category: f

molecule: N#Cc1cnc2cc(OC[C@@H](O)CO)c(NC(=O)CC3CSSC3)cc2c1Nc1ccc(OCc2cccc(F)c2)c(Cl)c1
category: f

Status in this test for `CC[C@@]1(O)C(=O)NCc2c1cc1n(c2=O)Cc2cc3c(N)cccc3nc2-1` ?
f

Status in this test for `Nc1nnc2cc(Cl)ccc2n1` ?
f

Status in this test for `N#Cc1c(-c2ccccc2)cc(-c2ccc(Nc3nc(Nc4ccc(Cl)cc4)nc(Nc4ccc(Cl)cc4)n3)cc2)nc1N` ?
f

====

Tested on: IGROV1 ovarian
experimental.details: NCI tumour cell line growth inhibition, 48 h
quantity.measured: TGI

compound: Cn1c(C(C#N)c2nc(Cl)ncc2Br)nc2ccccc21 (stereo unspecified)
value.observed: > 100 µM
//
compound: COC(=O)c1sc(C(=O)OC)c2c1CSC2
value.observed: > 100 µM
//
compound: O=C1C=C(Br)C(=O)C12CCc1ccccc12 (stereo unspecified)
value.observed: 39.3 µM
//
compound: Nc1ccc(S(=O)(=O)C23CC4CC(CC(C4)C2)C3)cc1
value.observed: > 100 µM

Identify measured TGI corresponding to CC(C(=O)ON1C(=O)CCC1=O)c1ccc(C(=O)c2ccccc2)s1 (stereo unspecified)
> 100 µM

Identify measured TGI corresponding to COC(=O)C1=C(C)NC2(O)C=CC(=O)C3C(=O)N(c4ccccc4)C(=O)C132 (stereo unspecified)
> 100 µM

Identify measured TGI corresponding to `O=C(Nc1ccc(Cl)cc1)c1ccc(NC2=C(Cl)C(=O)N(Cc3ccccc3)C2=O)cc1`
6.22 µM

Identify measured TGI corresponding to `COc1ccc(S(=O)(=O)O)cc1-n1nc(C(=O)Nc2ccccc2)n[n+]1-c1cc(S(=O)(=O)[O-])ccc1OC`
> 100 µM

====

# GI50 values compiled below
System: HT29 colon
experimental.details: NCI tumour cell line growth inhibition, 48 h

Reference set, count: 2
compound: CC(C)c1ccc(C(=O)Nc2sc3c(c2C#N)CCC(=O)C3)cc1
GI50: 0.465 µM
--
compound: CCCCCCCCCCN(CCCCCCCCCC)CC(=O)c1ccc2cc(Br)c3ccccc3c2c1
GI50: 1.32 µM

Identify measured GI50 corresponding to `CN(C)CCCN1c2nc3ccccc3cc2Sc2cc3ccccc3nc21`
1.18 µM

Identify measured GI50 corresponding to `CC(=O)O[C@H]1CC[C@@]2(C)C(=CC[C@H]3[C@@H]4C/C(=C\c5cccc(OCCN6CCOCC6)c5)[C@H](OC(C)=O)[C@@]4(C)CC[C@@H]32)C1`
2.16 µM

Identify measured GI50 corresponding to `CC1=C[C@H]2c3c(c(O)c(O)c4oc5ccccc5c(=O)c34)[C@H](c3cc(O)c(O)c4oc5ccccc5c(=O)c34)[C@H]2C(C)(C)C1`
0.86 µM

Identify measured GI50 corresponding to `O=c1nc(Nc2cccc(Cl)c2)oc2cc(Cl)oc(=O)c12`
9.39 µM

Identify measured GI50 corresponding to `CC[C@@]1(O)C(=O)NCc2c1cc1n(c2=O)Cc2cc3c(N)cccc3nc2-1`
15.1 µM

Identify measured GI50 corresponding to `Cc1cc(C)c(C[N+](C)(C)C)c(C)c1C`
0.388 µM

Identify measured GI50 corresponding to COC1CC2C=C(C)/C=C/C=C/C(=O)NC(c3ccccc3)C/C=C/CCC(O)CC(=O)C2=C1O (configuration not stated)
0.238 µM

Identify measured GI50 corresponding to COc1cc(/C=C2\CC3C4CC=C5C[C@@H](OC(C)=O)CC[C@]5(C)C4CC[C@]3(C)C2=O)ccc1OCCCn1ccnc1 (some centres not stated)
16 µM

Identify measured GI50 corresponding to `NC(=O)c1cc(Br)cc(C2CCCCC2)c1O`
16.8 µM

Identify measured GI50 corresponding to `N#Cc1cnc2cc(OC[C@@H](O)CO)c(NC(=O)CC3CSSC3)cc2c1Nc1ccc(OCc2cccc(F)c2)c(Cl)c1`
0.225 µM
